# assay method text: Pharmacokinetics of Compound A, phase I dose-escalation part (plasma)
# Assay type: in vivo, human
# test settings: human, plasma, oral, 120 mg, C1D1, 120 mg BID (n = 3), geometric mean; read-out: AUC(0-12 h)
# Procedure: In the treatment phase, Compound A (an oral formulation containing Compound A) is administered to the subjects of administration in one cycle of 28 days. […] In the dose-escalation part, blood was collected from the subjects of administration according to the schedule shown in Table 5, and the pharmacokinetics of Compound A was evaluated. […]
property measured: AUC(0-t) (ng·h/mL)

- C=CCN1CC(=O)N2[C@@H](Cc3ccc(O)cc3F)C(=O)N(Cc3cccc(N4CC(N5CCN(CC)CC5)C4)n3)C[C@@H]2N1C(=O)NCc1ccccc1 [Compound A]: 1910

###

# assay method text: Pharmacokinetics of Compound A, phase I dose-escalation part (plasma)
# Type: in vivo, human
# test settings: human, plasma, oral, 15 mg, C1D1, 15 mg BID (n = 4), geometric mean; read-out: AUC(0-12 h)
property measured: AUC(0-t) (ng·h/mL)

* C=CCN1CC(=O)N2[C@@H](Cc3ccc(O)cc3F)C(=O)N(Cc3cccc(N4CC(N5CCN(CC)CC5)C4)n3)C[C@@H]2N1C(=O)NCc1ccccc1 | 310

###

# assay method text: Pharmacokinetics of Compound A, phase I dose-escalation part (plasma)
# Assay type: in vivo, human
# test settings: human, plasma, oral, 15 mg, C1D1, 15 mg BID (n = 4), geometric mean; read-out: Cmax
# Experimental: In the treatment phase, Compound A (an oral formulation containing Compound A) is administered to the subjects of administration in one cycle of 28 days. […] In the dose-escalation part, blood was collected from the subjects of administration according to the schedule shown in Table 5, and the pharmacokinetics of Compound A was evaluated. […]
property measured: Cmax (ng/mL)

- C=CCN1CC(=O)N2[C@@H](Cc3ccc(O)cc3F)C(=O)N(Cc3cccc(N4CC(N5CCN(CC)CC5)C4)n3)C[C@@H]2N1C(=O)NCc1ccccc1: 135

###

# assay method text: Pharmacokinetics of Compound A, phase I dose-escalation part (plasma)
# Type: in vivo, human
# test settings: human, plasma, oral, 10 mg, C1D8, 10 mg BID (n = 3), geometric mean; read-out: C max, ss
property measured: Cmax

- C=CCN1CC(=O)N2[C@@H](Cc3ccc(O)cc3F)C(=O)N(Cc3cccc(N4CC(N5CCN(CC)CC5)C4)n3)C[C@@H]2N1C(=O)NCc1ccccc1: 53.9 ng/mL

###

# assay method text: Pharmacokinetics of Compound A, phase I dose-escalation part (plasma)
# Assay type: in vivo, human
# test settings: human, plasma, oral, 80 mg, C1D8, 80 mg BID (n = 3), median
property measured: Tmax

- C=CCN1CC(=O)N2[C@@H](Cc3ccc(O)cc3F)C(=O)N(Cc3cccc(N4CC(N5CCN(CC)CC5)C4)n3)C[C@@H]2N1C(=O)NCc1ccccc1: 1 h

###

# assay method text: Pharmacokinetics of Compound A, phase I dose-escalation part (plasma)
# Format: in vivo, human
# test settings: human, plasma, oral, 100 mg, C1D8, 100 mg BID (n = 6), median
property measured: Tmax (h)

• C=CCN1CC(=O)N2[C@@H](Cc3ccc(O)cc3F)C(=O)N(Cc3cccc(N4CC(N5CCN(CC)CC5)C4)n3)C[C@@H]2N1C(=O)NCc1ccccc1 = 1
